Test system: IL-6 secretion in the human mast cell line HMC 1.1
Test: IL-6 production inhibition assay (IL-33 stimulated HMC 1.1 cells, IL-6 ELISA)
Format: cell-based
Conditions: read-out: Inhibition of hIL-6 production EC50
pEC50: −log10 of the molar value.
measuredMetric: pEC50

{"smilesString": "CSc1ccc(-c2nc(C(=O)NCCN3CCN(C)CC3)c(-c3ccccc3)o2)cc1", "tgt": "IL-6 secretion in the human mast cell line HMC 1.1", "pEC50": 6.38}

A. CCOC(=O)c1nc(-c2ccc(SC)cc2)oc1-c1ccccc1
B. CSc1ccc(-c2nc(C(=O)NCCN(C)C)c(-c3ccccc3)o2)cc1
C. CN(C)CCNC(=O)c1nc(-c2cccc(Cl)c2)oc1-c1ccccc1
# rank by pEC50, ascending (min first) Order the labels as requested and list them. C, B, A

Reference source for all entries: patent US20240287052A1
